METHOD: Human liver microsome stability
RUN PARAMETERS: human, microsomes, HLM % remaining, relative percent remaining of prodrug at 120 min

# MOLECULE, RESULT MODIFIER, remaining at 2 h, 3 μM / %
data = [
    ("C[C@H](Cn1cnc2c(N)ncnc21)OCP(=O)(O)OCCCSCCCCCCCCCCCCC#C[Si](C)(C)C.N [15c]", "=", 82),
    ("C[C@H](Cn1cnc2c(N)ncnc21)OCP(=O)(O)OCCCSCCCCCCCCCCC#CC1CCCCC1.N [15h]", "=", 67),
    ("C[C@H](Cn1cnc2c(N)ncnc21)OCP(=O)(O)OCCCSCCCCCCCCCCCCc1ccc(F)cc1.N [16g]", "=", 69),
    ("CCCCCCCCCCCCCCCCCCSCCCOP(=O)(O)CO[C@H](C)Cn1cnc2c(N)ncnc21.N", "=", 95),
    ("C[C@H](Cn1cnc2c(N)ncnc21)OCP(=O)(O)OCCCSCCCCCCCCCCCCC1CCCCC1.N [16h]", "=", 85),
    ("C[C@H](Cn1cnc2c(N)ncnc21)OCP(=O)(O)OCCCSCCCCCCCCCCC#Cc1ccc(F)cc1.N [15g]", "=", 67),
    ("C[C@H](Cn1cnc2c(N)ncnc21)OCP(=O)(O)OCCCSCCCCCCCCCCCCC#CC(C)(C)C.N [15e]", "=", 71),
    ("C[C@H](Cn1cnc2c(N)ncnc21)OCP(=O)(O)OCCCSCCCCCCCCCCCCCCC(C)(C)C.N [16e]", "=", 95),
    ("CCCCCCCCCCCCCCCCCCCCSCCCOP(=O)(O)CO[C@H](C)Cn1cnc2c(N)ncnc21.N", "=", 95),
    ("CC(C)[Si](C#CCCCCCCCCCCCSCCCOP(=O)(O)CO[C@H](C)Cn1cnc2c(N)ncnc21)(C(C)C)C(C)C.N [15d]", ">", 95),
]

----------
METHOD: Human liver microsome stability
RUN PARAMETERS: human, microsomes, HLM t1/2, HLM 1 mg/mL, 3 μM compound, NADPH, 37 °C, 120 min course
# half-life at 3 μM listing for each entry below
ASSAY METRIC: half-life at 3 μM (h)

# MOLECULE, ASSAY METRIC, UNITS, RESULT MODIFIER, READOUT NUMBER
data = [
    ("CC(C)[Si](C#CCCCCCCCCCCCSCCCOP(=O)(O)CO[C@H](C)Cn1cnc2c(N)ncnc21)(C(C)C)C(C)C.N [15d]", "half-life at 3 μM", "h", ">", 2),
    ("C[C@H](Cn1cnc2c(N)ncnc21)OCP(=O)(O)OCCCSCCCCCCCCCCCCc1ccccc1.N [16f]", "half-life at 3 μM", "h", "=", 1.13),
    ("CCCCCCCCCCCCCCCCCCCCSCCCOP(=O)(O)CO[C@H](C)Cn1cnc2c(N)ncnc21.N", "half-life at 3 μM", "h", ">", 2),
    ("C[C@H](Cn1cnc2c(N)ncnc21)OCP(=O)(O)OCCCSCCCCCCCCCCCCC#CC(C)(C)C.N [15e]", "half-life at 3 μM", "h", ">", 2),
    ("CCCCCCCCCCCCCCCCCSCCOP(=O)(O)CO[C@H](C)Cn1cnc2c(N)ncnc21.N", "half-life at 3 μM", "h", "=", 1.1),
    ("CCCCCCCCCCCCCSCCCCCCOP(=O)(O)CO[C@H](C)Cn1cnc2c(N)ncnc21.N", "half-life at 3 μM", "h", "=", 1.1),
    ("C[C@H](Cn1cnc2c(N)ncnc21)OCP(=O)(O)OCCCSCCCCCCCCCCCCc1ccc(F)cc1.N [16g]", "half-life at 3 μM", "h", ">", 2),
    ("C[C@H](Cn1cnc2c(N)ncnc21)OCP(=O)(O)OCCCSCCCCCCCCCCC#Cc1ccccc1.N [15f]", "half-life at 3 μM", "h", "=", 1.18),
]

// data source = paper PMC11513920
